Target: T1, Flag-PTHR1-YFP (parathyroid hormone receptor 1) expressed in transfected HEK293T cells (human, UniProt Q03431 27-593)
T1 sequence (looked up): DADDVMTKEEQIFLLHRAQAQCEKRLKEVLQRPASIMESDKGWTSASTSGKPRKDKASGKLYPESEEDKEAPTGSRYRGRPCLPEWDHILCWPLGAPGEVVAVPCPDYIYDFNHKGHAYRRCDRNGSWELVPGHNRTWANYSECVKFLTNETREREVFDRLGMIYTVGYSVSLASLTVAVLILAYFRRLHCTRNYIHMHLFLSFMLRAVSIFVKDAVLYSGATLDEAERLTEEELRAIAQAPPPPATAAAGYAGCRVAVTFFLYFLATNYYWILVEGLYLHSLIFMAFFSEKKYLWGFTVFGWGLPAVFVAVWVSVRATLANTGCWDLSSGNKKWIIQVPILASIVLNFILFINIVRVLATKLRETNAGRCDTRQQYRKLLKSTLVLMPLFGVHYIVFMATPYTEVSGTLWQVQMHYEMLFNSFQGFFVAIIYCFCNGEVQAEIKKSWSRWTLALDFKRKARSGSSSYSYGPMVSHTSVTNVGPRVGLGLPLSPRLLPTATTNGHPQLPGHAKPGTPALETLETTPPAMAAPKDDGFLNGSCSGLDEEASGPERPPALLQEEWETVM
Experiment: cell-based or functional assay
Recorded arrestin 1, plate 25: -log10EC50 by entry
Value Kind: arrestin 1, plate 25: -log10EC50

In [3]: df
Out[3]:
                                     binder   endpoint_result
0  GIAVITLMLLRAYLELLEELVKILHELLRRYH [R2-52]  -9.83 -log10EC50
1  GVAMLQIMHDLAKIKQELELKDSMKKILEDVL [R2-50]  -13.8 -log10EC50
2  AVAEIQLMHQRAKWELEFELFREFLKLLVDFF [I3 (R1-97)]  -11.5 -log10EC50
3  GIAVITLMVLRALLELQEIGRKITLELLKEYI [R2-51]  -4.53 -log10EC50

The origin of these recorded values is patent US20220298217A1.
